biological target: HRas-GTP (Homo sapiens)
Sequence (P01112 1-186): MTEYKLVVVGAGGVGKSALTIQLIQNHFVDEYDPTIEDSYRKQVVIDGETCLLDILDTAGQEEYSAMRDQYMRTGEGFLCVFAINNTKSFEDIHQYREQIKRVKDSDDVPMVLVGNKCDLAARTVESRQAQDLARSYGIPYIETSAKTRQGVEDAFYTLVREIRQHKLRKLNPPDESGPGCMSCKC
TEST READOUT: Kd (µM)
// units = µM; emit number, no label

Reported Kd ( C[C@@]12C3=CC(=O)OCC3=C[C@H]3OC(=O)[C@](C)([C@H]31)[C@@H](O)[C@H]1O[C@H]12 [WA, Wentilactone A] ) = 15.7
